Substrate: O=[N+]([O-])c1ccc2c(c1)OCO2
Experiment: purified protein
Type: biochemical, Thermothelomyces thermophilus
Details: H2O2 as saturating co-substrate; 20 nM enzyme; standard deviation <18%
QUANTITY_MEASURED: kcat/Km (M⁻¹ s⁻¹)
Just the number in M⁻¹ s⁻¹, nothing appended.

# PROTEIN, kcat/Km [M⁻¹ s⁻¹]
records = [
    ("MthUPO (Thermothelomyces thermophilus ATCC 42464; A177F/L76F/S175G) (protein, secreted from S. cerevisiae, purified; 245 AA plus C-terminal TwinStrep-GFP11 tag; heme-thiolate) AGFDTWSPPGPYDVRAPCPMLNTLANHGFLPHDGKDITREQTENALFEALHINKTLASFFFDFALTTNPKNTSTFSLNDLGNHNILEHDASLSRADAYFGNVLQFNQTVFDETKTYWEGDTIDLRMAAKARLGRIKTSQATNPTYSMSELGDAFTYGEGAFYVVVLGDKESRTVKRSWVEWFFEHEQLPQHLGWKRPAASFEEEDLNSSMEEIEKYTKELEGSNSTSGSQKHRRRLPRRRAHFGF", 310000),
    ("MthUPO (Thermothelomyces thermophilus ATCC 42464; F170A/F75Q/L76M/S175G) (protein, secreted from S. cerevisiae, purified; 245 AA plus C-terminal TwinStrep-GFP11 tag; heme-thiolate) AGFDTWSPPGPYDVRAPCPMLNTLANHGFLPHDGKDITREQTENALFEALHINKTLASQMFDFALTTNPKNTSTFSLNDLGNHNILEHDASLSRADAYFGNVLQFNQTVFDETKTYWEGDTIDLRMAAKARLGRIKTSQATNPTYSMSELGDAATYGEGAAYVVVLGDKESRTVKRSWVEWFFEHEQLPQHLGWKRPAASFEEEDLNSSMEEIEKYTKELEGSNSTSGSQKHRRRLPRRRAHFGF", 210000),
]

Challenge: What kcat/Km value was documented for this protein, MthUPO (Thermothelomyces thermophilus ATCC 42464) (protein, secreted from S. cerevisiae, purified; 245 AA plus C-terminal TwinStrep-GFP11 tag; heme-thiolate) AGFDTWSPPGPYDVRAPCPMLNTLANHGFLPHDGKDITREQTENALFEALHINKTLASFLFDFALTTNPKNTSTFSLNDLGNHNILEHDASLSRADAYFGNVLQFNQTVFDETKTYWEGDTIDLRMAAKARLGRIKTSQATNPTYSMSELGDAFTYGESAAYVVVLGDKESRTVKRSWVEWFFEHEQLPQHLGWKRPAASFEEEDLNSSMEEIEKYTKELEGSNSTSGSQKHRRRLPRRRAHFGF ?
Response given: 19000
